Entries and their measured Activity follow.
Tested on: Mycobacterium leprae
Test: Anti-leprotic activity against Mycobacterium leprae infected in 538 CBA mouse assessed as number of Mycobacterium leprae in paw pads at 6 mg/kg administrated via gastric tube 5 times a week and measured 7 months post infection
Assay type: functional

{"structure_as_smiles": "N#Cc1cc([N+](=O)[O-])cnc1SC(=S)N1CCCC1", "reading_unit": "×10⁷ No_unit", "Activity": 0.28}
{"structure_as_smiles": "COc1cc(Sc2cnc(N)nc2N)cc(OC)c1Br", "reading_unit": "×10⁷ No_unit", "Activity": 0.02}
{"structure_as_smiles": "CN(C)c1ncnc(SC(=S)N2CCCC2)c1[N+](=O)[O-]", "reading_unit": "×10⁷ No_unit", "Activity": 2.14}
{"structure_as_smiles": "COc1cc(Oc2cnc(N)nc2N)cc(OC)c1Br", "reading_unit": "×10⁷ No_unit", "Activity": 0.56}
{"structure_as_smiles": "N#Cc1cc([N+](=O)[O-])cnc1SC(=S)N1CCCCCC1", "reading_unit": "×10⁷ No_unit", "Activity": 0.28}
{"structure_as_smiles": "COc1ncnc(SC(=S)N2CCCC2)c1[N+](=O)[O-]", "reading_unit": "×10⁷ No_unit", "Activity": 0.029}
